Assay: Comparison of D- and L-amino acids for forming hydrogels with PVA
Type: physicochemical
Parameters: key: {square root} = Gel formation when amino acid was dissolved in water; + = Gel formation when amino acid was dissolved in 1 M NaHCO3; − = No gel formation regardless of solvent for amino acid; *= HCl derivative of amino acid
Settings: L-amino acid, 1 ml of 8% PVA
Procedure: In these experiments, the ability of D-amino acids to gel PVA was compared directly to the gelling observed using L-amino acids. The concentrations of amino acids used were the same for both the L- and D-forms. All D- and L-amino acids were obtained from Aldrich. Typically, 100 mg of amino acid was dissolved in the minimum amount of water or 1M NaHCO3 (200-600 microliter) necessary to dissolve it. […]
Attribute Measured: Gel formation, L

Recorded results for 5 compounds are shown here.
Structure Notation | Gel formation, L
O=C(O)[C@@H]1CCCN1 | {square root}
N[C@@H](Cc1ccccc1)C(=O)O | +
N[C@@H](Cc1ccc(O)cc1)C(=O)O | +
N=C(N)NCCC[C@H](N)C(=O)O | {square root}
N[C@@H](CC(=O)O)C(=O)O | −

Prompt: Which Gel formation, L is reported for this compound? NC(=O)CC[C@H](N)C(=O)O
Response: +

Prompt: Another compound to check: C[C@H](N)C(=O)O
Response: +

Prompt: Another compound to check: O=C(O)[C@@H]1C[C@@H](O)CN1
Response: −

Prompt: Another compound to check: CSCC[C@H](N)C(=O)O
Response: −

Prompt: Another compound to check: N[C@@H](CCC(=O)O)C(=O)O
Response: −

Prompt: Another compound to check: CC[C@H](C)[C@H](N)C(=O)O
Response: −

Prompt: Another compound to check: CC(C)C[C@H](N)C(=O)O
Response: −

Prompt: Another compound to check: CC(C)[C@H](N)C(=O)O
Response: +

---

test: Comparison of D- and L-amino acids for forming hydrogels with PVA; format: physicochemical; design: key: {square root} = Gel formation when amino acid was dissolved in water; + = Gel formation when amino acid was dissolved in 1 M NaHCO3; − = No gel formation regardless of solvent for amino acid; *= HCl derivative of amino acid; details: D-amino acid, 1 ml of 8% PVA
Attribute Measured: Gel formation, D

Recorded results for 5 molecules are shown here.
Structure Notation | Result
CSCC[C@@H](N)C(=O)O | +
N[C@H](CO)C(=O)O | {square root}
N[C@H](CC(=O)O)C(=O)O | −
NC(=O)CC[C@@H](N)C(=O)O | −
CC[C@@H](C)[C@@H](N)C(=O)O | +

Prompt: Which Gel formation, D is reported for this molecule? C[C@@H](N)C(=O)O
Response: −

Prompt: Another molecule to check: CC(C)[C@@H](N)C(=O)O
Response: +

Prompt: Another molecule to check: CCCC[C@@H](N)C(=O)O
Response: +

Prompt: Another molecule to check: CC(C)C[C@@H](N)C(=O)O
Response: +

Prompt: Another molecule to check: N[C@H](CCC(=O)O)C(=O)O
Response: −

Prompt: Another molecule to check: NCCCC[C@@H](N)C(=O)O
Response: {square root}

Prompt: Another molecule to check: N[C@H](Cc1c[nH]c2ccccc12)C(=O)O
Response: +

---

Assay: Comparison of D- and L-amino acids for forming hydrogels with PVA
Type: physicochemical
Set-up: key: {square root} = Gel formation when amino acid was dissolved in water; + = Gel formation when amino acid was dissolved in 1 M NaHCO3; − = No gel formation regardless of solvent for amino acid; *= HCl derivative of amino acid
Conditions: D-amino acid, 1 ml of 8% PVA
Protocol: In these experiments, the ability of D-amino acids to gel PVA was compared directly to the gelling observed using L-amino acids. The concentrations of amino acids used were the same for both the L- and D-forms. All D- and L-amino acids were obtained from Aldrich. Typically, 100 mg of amino acid was dissolved in the minimum amount of water or 1M NaHCO3 (200-600 microliter) necessary to dissolve it. […]
Attribute Measured: Gel formation, D

Recorded results for 5 compounds are shown here.
Compound | Gel formation, D
N[C@H](Cc1ccc(O)cc1)C(=O)O [D-Tyr] | +
NC(=O)C[C@@H](N)C(=O)O [D-Asn] | −
N[C@H](Cc1ccccc1)C(=O)O [D-Phe] | +
N[C@H](Cc1c[nH]cn1)C(=O)O [D-His] | −
Cl.NC(N)=NCCC[C@@H](N)C(=O)O [D-Arg] | −*

# ---- query compound ----
Prompt: Which Gel formation, D is reported for this compound? C[C@H](O)[C@@H](N)C(=O)O [D-Thr]
Response: +

---

assay: Comparison of D- and L-amino acids for forming hydrogels with PVA; format: physicochemical; design: key: {square root} = Gel formation when amino acid was dissolved in water; + = Gel formation when amino acid was dissolved in 1 M NaHCO3; − = No gel formation regardless of solvent for amino acid; *= HCl derivative of amino acid; details: L-amino acid, 1 ml of 8% PVA
Attribute Measured: Gel formation, L

Recorded results for 7 compounds are shown here.
Structure Notation | Gel formation, L
NC(=O)C[C@H](N)C(=O)O | +
N[C@@H](CS)C(=O)O | +
N[C@@H](Cc1c[nH]cn1)C(=O)O | {square root}
NCC(=O)O | {square root}
NCCCC[C@H](N)C(=O)O | {square root}
N[C@@H](CO)C(=O)O | +
N[C@@H](Cc1c[nH]c2ccccc12)C(=O)O | {square root}

Prompt: Which Gel formation, L is reported for this compound? C[C@@H](O)[C@H](N)C(=O)O
Response: +

# credit: patent US20050276857A1
